Target: T1, CRBN, Q96SW2;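 also: pooled lentiviral library of zinc finger degron-EGFP fusions in mCherry-positive Jurkat cells, FACS-sorted after compound exposure, with degron abundance counted by next-generation sequencing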
T1 chain: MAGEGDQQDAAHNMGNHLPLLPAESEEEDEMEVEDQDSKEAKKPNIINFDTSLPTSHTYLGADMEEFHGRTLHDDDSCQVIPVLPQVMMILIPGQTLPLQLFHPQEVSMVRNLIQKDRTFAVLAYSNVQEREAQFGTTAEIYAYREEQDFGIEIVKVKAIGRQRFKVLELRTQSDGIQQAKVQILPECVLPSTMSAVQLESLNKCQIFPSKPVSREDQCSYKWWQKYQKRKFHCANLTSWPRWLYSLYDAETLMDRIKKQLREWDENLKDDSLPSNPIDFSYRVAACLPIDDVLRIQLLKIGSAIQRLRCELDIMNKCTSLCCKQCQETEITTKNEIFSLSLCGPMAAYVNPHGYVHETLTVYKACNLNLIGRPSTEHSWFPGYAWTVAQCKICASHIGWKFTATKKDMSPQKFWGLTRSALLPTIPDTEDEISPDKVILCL
Experiment: log2 fold change of degron read counts, EGFP-low vs EGFP+ sorted cells (limma voom), compound-induced degradation; higher = more compound-induced degradation of the degron-EGFP fusion; degrons are variants of IKZF1/3 zinc finger 2; compound dose not given here
Conditions: Jurkat; 18 h; compound: compound 33 (diphenyl IMiD analogue)
Whole data set: some 8,300 sequences, median “log2 fold change of degron read counts, EGFP-low vs EGFP+ sorted cells (limma voom), compound-induced degradation” near -1.1, cut for the highest 2% near 3.2. The list comes from a sample in which the highest values are over-represented; it also holds close analogues and randomly drawn sequences.
Give log2 fold change of degron read counts for every item shown.
The answer should be a number; do not append a unit.

Q) State its log2 fold change of degron read counts for this sequence: FMCDICGAQFTQKGNLLRHIKL [46F_47M_49D_50I_52G_53A_54Q_55F_67L_, Q9UKT9]
A) 2.21

Q) State its log2 fold change of degron read counts for this sequence: FECEICGHSFTQKGNLLRHIKL [46F_47E_49E_50I_52G_53H_54S_55F_67L_, Q9UKT9]
A) -3.41

Q) State its log2 fold change of degron read counts for this sequence: FHCEICGAWFTQKGNLLRHIKL [46F_47H_49E_50I_52G_53A_54W_55F_67L_, Q9UKT9]
A) -0.784

Q) State its log2 fold change of degron read counts for this sequence: FGCDICGAFFTQKGNLLRHIKL [46F_47G_49D_50I_52G_53A_54F_55F_67L_, Q9UKT9]
A) 1.74
